- PROTOCOL SUMMARY: Phase 1 SAD/MAD study: plasma pharmacokinetics of Compound 1a (LC-MS-MS, noncompartmental analysis)
- Type: in vivo, human
- COND: human, plasma, oral, 40 mg, single dose 40 mg, healthy volunteers, geometric mean
OBSERVATION TYPE: Cmax (ng/mL)
Write the number in ng/mL without appending the unit.

The compound identified as O.O=C([O-])c1nn[nH]c1Oc1ccc(-c2ccc(C3CC(F)(F)C3)cc2)cc1.[Na+] [Compound 1a] registered its Cmax at 2040
